Each recorded value in this set is attributed to patent US20210246115A1.

Test system: Staphylococcus aureus subsp. aureus (ATCC29213)
Assay: MIC, broth microdilution (CLSI), Staphylococcus aureus ATCC29213
Type: cell-based
Conditions: Staphylococcus aureus, ATCC29213, Table XIII; read-out: S. aureus ATCC 29213 MIC
Measurement Kind: MIC (µg/mL)
Report the value in µg/mL with no unit label.

Below: 5 compounds and their reported MIC.
| Compound | Readout Units | MIC |
| --- | --- | --- |
| Cc1cccc(C(CCNCCCN)c2cn(C3CCCCC3)c3ccc(Br)cc23)c1.Cl.Cl (stereo not shown) | µg/mL | 4 |
| Cl.Cl.N#Cc1ccc2c(c1)c(C(CCN[C@H]1CC[C@H](N)CC1)C1CCCCC1)cn2C1CCCCC1 (stereo partly shown) | µg/mL | 4 |
| Cl.Cl.NCCCNCCC(c1cccc(OC(F)(F)F)c1)c1cn(C2CCCCC2)c2ccccc12 (stereo not shown) | µg/mL | 4 |
| NCCCNC1CCCC(c2cn(C3CCCCC3)c3ccc(Br)cc23)C1 (stereo not shown) | µg/mL | 4 |
| N#Cc1ccc2c(c1)c(C1CCCC(NCCCN)C1)cn2C1CCCCC1 (stereo not shown) | µg/mL | 16 |

Next, consider the following compound.
Task: For `Cl.Cl.NCCCNCCCc1cn(C2CCCCC2)c2ccc(Br)cc12` , what is its reported MIC?
Output: 16
